Origin of the recorded values: patent US20240317871A1

Biological target: T1, His-tagged human HVEM (human, UniProt Q92956 39-202, limits assumed)
T1 construct: Analyte of the BLI assay, 200 nM in PBS; not shown: His tag
T1 sequence (looked up): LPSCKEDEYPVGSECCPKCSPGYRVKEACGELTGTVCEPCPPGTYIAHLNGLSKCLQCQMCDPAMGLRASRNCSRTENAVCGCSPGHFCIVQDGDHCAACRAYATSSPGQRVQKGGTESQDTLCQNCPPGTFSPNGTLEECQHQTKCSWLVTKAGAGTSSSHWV
Assay: BLI OctetRed96, mAb captured, 200 nM His-HVEM
Measurement Kind: pKd
The scale used: pKd is minus the common logarithm of the concentration in molar units.

Please give the documented pKd of Ab_009 (H5S14-8A7A) (antibody, V domains shown, also called Ab_9) VH: EVKLVESGGDLVKPGGSLKLSCAASGFTFSNYAMSWVRQTPEKRLEWVASISTGGTTSYYSDSVKGRFTISRDNARNILYLQMSSLRSEDTAMYYCARGGGGNYFWFTYWGQGTLVTISA VL: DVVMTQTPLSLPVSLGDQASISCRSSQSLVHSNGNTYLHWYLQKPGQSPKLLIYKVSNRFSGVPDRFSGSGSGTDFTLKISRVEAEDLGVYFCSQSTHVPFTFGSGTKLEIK
7.45

Please give the documented pKd of Ab_073 (H5S20-9A9A) (antibody, V domains shown, also called Ab_73) VH: EVQLQQSGADLVKPGASVKLSCTASGFNIRDTYMHWVNQRPEQGLEWIGRIDPANGNTKYAPKFQGRATITADTSSNTAYLHLSSLTSEDTAVYYCAGYGNSPWFAYWGQGTLVTVSA VL: DVLMTQTPLSLPVNLGDQASISCRSSQSIVHSNGNTYLEWYLQKPGQSPKLLIYKVSNRFSGVPDRFSGSGSGTDFTLKISRVEAEDLGVYYCFQGSHVPLTFGAGTKLELK
6.43

Please give the documented pKd of Ab_043 (H5S15-29A24A) (antibody, V domains shown, also called Ab_43) VH: EVQLQQSGAELVRPGALVKLSCKASGFNIKDDYMHWVKQRPEQGLEWIGWIDPENGNTIYDPKFQGKASITADTSSNTAYLQLSSLTSEDTAVYYCARGYSSSPYWGQGTLVTVSA VL: DIVLTQSPASLAVSLGQRATISCKASQSVDYDGNSYMNWYQQKPRQPPKLLIYAASNLESGIPARFRGSGSGTDFTLNIHPVEEEDAATYYCQQSNEDPFTFGSGTKLEIK
8.41

Please give the documented pKd of Ab_053 (H5S19-20A20A) (antibody, V domains shown, also called Ab_53) VH: QVQLKESGPGLVAPSQSLSITCTVSGFSLTSYGVHWVRQPPGKGLEWLGVIWAGGITNYNSALMSRLSISKDNSKSQVFLKMNSLQTDDTAMYYCARDWERDSSGPFVYWGQGTLVTVSA VL: DIQMTQTTSSLSASLGDRVTISCTASQGISNYLNWYQQKPDGTVKLLIYYTSTLHSGVPSRFSGSGSGTDYSLTISNLEPEDIATYYCQQYFKLPWTFGGGTKLEIK
6.99

Please give the documented pKd of Ab_063 (H5S20-4A4A) (antibody, V domains shown, also called Ab_159; Ab_63) VH: EVKLVESGGGLMKPGGSLKLSCAASGFTFSSYAMSWVRQTPETRLEWVASISSGGSTYYPDSVKGRFTISRDNVRNILYLQMSSLRSEDTAMYFCTRGGYGSSYVIWGQGTTLTVSS VL: DIVMSQSPSSLAVSVGEKITMSCKSSQSLLFSSIQKNYLAWYQQKPGQSPKLLVYWASTRESGVPDRFTGSGSGTDFTLTISSVKAEDLAVYYCQQYYSYPFTFGSGTKLEIK
8.39
